- tested_target: T1, human GITR (human, UniProt Q9Y5U5 26-241)
- T1 sequence: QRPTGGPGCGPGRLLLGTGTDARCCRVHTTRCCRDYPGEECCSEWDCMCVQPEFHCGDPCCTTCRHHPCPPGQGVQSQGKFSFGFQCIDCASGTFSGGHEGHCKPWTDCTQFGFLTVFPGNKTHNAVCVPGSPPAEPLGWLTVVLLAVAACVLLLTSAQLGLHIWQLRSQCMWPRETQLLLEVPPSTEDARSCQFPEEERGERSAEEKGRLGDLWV
- protocol_description: cell-based or functional assay
measurement_type: Proliferation (Fold over CD3) (fold over CD3)
Write down the numeric answer in fold over CD3 and omit the unit.

Completed entries (count: 3):
binder	value_unit	Proliferation (Fold over CD3)
41G5v1 (antibody, human IgG1, kappa, V domains shown, Engineered variant; also called Ab55; SS-16952) VH: QVQLVESGGGVVQPGRSLRLSCAASGFTFSSYGMHWVRQAPGKGLEWVAVIWYPGSNKYYADSVKGRFTISRDNSKNTLYLQMNSLRAEDTAVYYCARGGELGRYYYYGMDVWGQGTTVTVSS VL: DIQMTQSPSSLSASVGDRVTVTCRASQGIRNDLGWYQQKPGKAPKLLIYAASSLQSGVPSRFSGSGSGTEFTLTISSLQPEDFATYYCLQHNNYPWTFGQGTKVDIKR	fold over CD3	2.9
5H7v2 (antibody, human IgG1, kappa, V domains shown, Engineered variant; also called Ab26; SS-13807) VH: QVQLQESGPGLVKPSETLSLTCTVSGGSISSGGYFWSWIRQPPGKGLEWIGYIYYSGTTYYNPSLKSRVTISIDTSKNQFSLKLSSVTAADTAVYYCARDLFYYDTSGPRGFDPWGQGTLVTVSS VL: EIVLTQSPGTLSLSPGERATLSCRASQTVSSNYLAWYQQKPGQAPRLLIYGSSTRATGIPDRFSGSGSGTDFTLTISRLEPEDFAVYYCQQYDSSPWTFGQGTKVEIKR	fold over CD3	3.2
33C9v1 (antibody, human IgG1, kappa, V domains shown, Engineered variant; also called Ab50; SS-16948) VH: QVQVVESGGGVVQPGRSLRLSCAASGFTFSSYGMHWVRQAPGKGLEWVSVIWYEGSNKYYADSVKGRFTISRDNSKNTLYLQMNSLRAEDTAVYYCARGGLLGYYYYYGMDVWGQGTTVTVSS VL: DIQMTQSPSSLSASVGDRVTITCRASQGIRNDLGWYQQKPGKAPKLLIYDASSLQSGVPSRFSGSGSGTEFTLTISSLQPEDFATYYCLQHHSYPWTFGQGTKVEIKR	fold over CD3	2.1

Reported Proliferation (Fold over CD3) of 33C9v4 (antibody, human IgG1, kappa, V domains shown, Engineered variant; also called Ab53; SS-16950) VH: QVQVVESGGGVVQPGRSLRLSCAASGFTFSSYGMHWVRQAPGKGLEWVSVIWYEGSNKYYAESVKGRFTISRDNSKNTLYLQMNSLRAEDTAVYYCARGGLLGYYYYYGMDVWGQGTTVTVSS VL: DIQMTQSPSSLSASVGDRVTITCRASQGIRNDLGWYQQKPGKAPKLLIYDASSLQSGVPSRFSGSGSGTEFTLTISSLQPEDFATYYCLQHHSYPWTFGQGTKVEIKR : 2.6

Reported Proliferation (Fold over CD3) of 9H6v5 (antibody, human IgG1, kappa, V domains shown, Engineered variant; also called Ab48; SS-16946) VH: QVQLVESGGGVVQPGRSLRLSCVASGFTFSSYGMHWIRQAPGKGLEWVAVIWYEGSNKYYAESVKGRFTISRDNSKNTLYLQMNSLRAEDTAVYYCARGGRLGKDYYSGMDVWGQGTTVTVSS VL: DIQMTQSPSSLSASVGDRVTITCRASQGIRNDLGWYQQKPGKAPKLLIYATSSLQSGVPSRFSGSGSGTEFTLTISSLQPEDFATYYCLQHNTYPWTFGQGTKVEIKR : 1.9

The reported numbers originate from patent US20150064204A1.
